# MEASURED ON: SARS-CoV-2 spike receptor binding domain (RBD), wild type (SARS-CoV-2, UniProt P0DTC2 319-539)
# PROTOCOL: ELISA, RBD protein coated, mAb titrated
Below, each of the binders is paired with its reported EC50 value.
PROPERTY NAME: EC50 (ng/mL)

INSERT INTO results (binder, number) VALUES
  ('C553 (antibody, V domains shown) VH: QVQLVESGGGVVQPGRSLRLSCAASGFTFSNYEIHWVRQAPGKGLEWVAGISYDGSTKYYADSVKGRFTISRDNSKNTLYLQMNSLRPEDTAVFYCARAGTTNSDYFDYWGQGTLVTVSS VL: SYELTQPPSVSVAPGMTARITCGGNTIGSKSVHWYQQKAGQAPVLVIYYDSDRPSGIPERFSGSNSGNTATLTISRVEAGDEADYYCQVWDSSSVLWVFGGGTKLTVL', 1.19),
  ('C213 (antibody, V domains shown) VH: EVQLVESGGGLVKPGGSLRLSCAASGFTFSSYSMNWVRQAPGKGLEWVSSISSSSSYIYYADSVKGRFTISRDNAKNSLYLQMNSLRAEDTAVYYCARVQVGARGWVDYWGQGTLVTVSS VL: NFMLTQPHSVSESPGKTVTISCTRSSGSIASNYVQWYQQRPGSAPTTVIYEDNERPSGVPDRFSGSIDSSSNSASLTISGLKTEDEADYYCQSYDRINWVFGGGTKLTVL', 2.02),
  ('C532 (antibody, V domains shown) VH: EVQLVQSGAEVKKPGESLKISCKGSGYRFTNYWIGWVRQMPGKGLEWIGNIFPGDSDSRYSPSFQGQVTISVDMSITTAYLHWSSLKASDTAIYYCARLSERWYSPFDSWGQGTLVTVSS VL: EIVMTQSPATLSVSPGERATLSCRASQSVSSNLAWYQQKPGQAPRLLIYGASTRATGFPARFSGSGSGTEFTLTISSLQSEDFAVYFCQQYNNWPPGGFTFGPGTKVDIK', 1);

Provenance of the data: patent US20220195015A1
